Target chain: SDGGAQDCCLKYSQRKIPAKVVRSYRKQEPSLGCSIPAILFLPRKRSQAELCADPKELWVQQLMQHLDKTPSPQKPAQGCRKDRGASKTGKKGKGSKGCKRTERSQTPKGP
pKd: −log10 of the molar value.
readoutKind: pKd

## Task Give the measured pKd of O=C(O)C1=C[C@H](O)[C@@H](OS(=O)(=O)O)[C@H](O[C@H]2[C@H](O)[C@@H](NS(=O)(=O)O)C(O)O[C@@H]2COS(=O)(=O)O)O1 (stereo partly shown) [heparin disaccharide I-S] .
## Result ~3.30
